target: human GLP-1 receptor (human, UniProt P43220 24-463); assay: cell-based or functional assay
Starred links: 1 amine or outer side, 2 acyl side, 3 side chain; linkers in the order of their positions; H or OH if unused. Non-standard residues stand in square brackets, D forms with d. Groups on a side chain read outwards from the residue. No end group written: not given here. *: point of attachment. C20 diacid = O=C(O)CCCCCCCCCCCCCCCCCCC(=O)*; γGlu = O=C(O)[C@H](CCC(=O)[*:2])N[*:1]; εLys = N[C@@H](CCCCN[*:1])C(=O)[*:2]; Aib = CC(C)(N)C(=O)O
For each record, write down the corresponding EC50 CreLuc hGLP1R 0.5% hP.
One number for each entry, in nM.

Some solved entries appear below for comparison.
* YXEGTFTSDYSIXLEKQAQXAFVEWLIKGGPSSGASLRHYXNWLTRQRY (Aib at 2, 13, 20; Tle at 41; K28 side chain: C20DA-gGlu-gGlu-gGlu-gGlu-gGlu-gGlu-eLys; C-terminal NH2) [Compound 133] | 0.16
* YXEGTFTSDYSIXLERQAQXAFVEWLIKGGPSSGASLRHYYNWLTRQRY (Aib at 2, 13, 20; K28 side chain: C20DA-gGlu-gGlu-gGlu-gGlu-gGlu-gGlu-eLys; C-terminal NH2) [Compound 131] | 0.11
* YXEGTFTSDYSIXLEKQAQXAFVEWLIKGGPSEPESLRHYYNWLTRQRY (Aib at 2, 13, 20; K28 side chain: C20DA-gGlu-gGlu-gGlu-gGlu-gGlu-gGlu-eLys; C-terminal NH2) [Compound 122] | 0.22
* YXEGTFTSDYSIXLEKQAQXAFVEWLIKGGPSSGASLXHYYNWLTRQRY (Aib at 2, 13, 20, 38; K28 side chain: C20DA-gGlu-gGlu-gGlu-gGlu-gGlu-gGlu-eLys; C-terminal NH2) [Compound 129] | 0.04

Turning now to a further record.
Lab book: EC50 CreLuc hGLP1R 0.5% hP of Y[Aib]EGTFTSDYSI[Aib]LEEQAQ[Aib]AFVEWLIK([εLys-γGlu-γGlu-γGlu-γGlu-C20 diacid])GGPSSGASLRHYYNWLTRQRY-NH2 [Compound 97] noted as 0.15
